targetOrSystem: bovine serum albumin (bovine) (UniProt P02769)
Sequence (P02769 25-607 limits assumed): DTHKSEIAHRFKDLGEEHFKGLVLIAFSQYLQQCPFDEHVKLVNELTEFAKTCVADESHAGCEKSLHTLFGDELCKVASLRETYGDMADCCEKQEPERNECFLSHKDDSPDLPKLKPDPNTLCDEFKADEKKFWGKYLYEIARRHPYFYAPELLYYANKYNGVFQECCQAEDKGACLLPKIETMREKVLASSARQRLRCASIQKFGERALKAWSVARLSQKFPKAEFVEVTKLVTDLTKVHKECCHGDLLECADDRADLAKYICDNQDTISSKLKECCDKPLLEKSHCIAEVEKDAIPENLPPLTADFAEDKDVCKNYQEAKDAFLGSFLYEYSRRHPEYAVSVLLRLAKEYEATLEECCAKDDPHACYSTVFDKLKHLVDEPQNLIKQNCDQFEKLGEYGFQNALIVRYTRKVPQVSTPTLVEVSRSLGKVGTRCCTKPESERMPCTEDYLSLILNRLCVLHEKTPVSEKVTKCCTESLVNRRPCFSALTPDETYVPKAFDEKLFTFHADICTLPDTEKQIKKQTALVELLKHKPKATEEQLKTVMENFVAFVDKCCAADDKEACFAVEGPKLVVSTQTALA
assayInfo: phage ELISA, BSA only, 10^10 phagemid per well
Positions of bridges follow the written chain, without caps; N, C: chain ends. No end group written: not given here.
readoutKind: ELISA (absorbance units) (absorbance units)
Answers are plain numbers.

binder="CSGLYPWDYFMCS (disulfide 1-12 (inferred); also: displayed on phage (phagemid)) [phagemid CS1-29p (phage-displayed disulfide cyclized 13 mer peptide)]" datavalue=0.141
binder="CSFRYLWDQDRCS (disulfide 1-12 (inferred); also: displayed on phage (phagemid)) [phagemid CS1-6p (phage-displayed disulfide cyclized 13 mer peptide)]" datavalue=0.275
binder="CSGLYPWDMFRCS (disulfide 1-12 (inferred); also: displayed on phage (phagemid)) [phagemid CS1-9p (phage-displayed disulfide cyclized 13 mer peptide)]" datavalue=0.221
binder="CSFRYQWDMFRCS (disulfide 1-12 (inferred); also: displayed on phage (phagemid)) [phagemid CS1-11p (phage-displayed disulfide cyclized 13 mer peptide)]" datavalue=0.304

Proceed to the following item.
Lookup: Endpoint output: ELISA (absorbance units) (absorbance units) of CSFFYSLCYCWCS (disulfide (positions not given here); also: four Cys, disulfide pairing not given here) [phagemid CS1-31p (phage-displayed disulfide cyclized 13 mer peptide)] . Value?
Found: 0.112
